Entries annotated with measured normalized growth
assay: chemical genetic growth profiling, strain panel (AID 1159580);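 further: tested at 20 µM; growth read once vehicle control cultures reached saturation at 30 °C; 1 = growth at the plate median or of vehicle wells; lower values mean less growth of the strain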; details: S. cerevisiae deletion strains, growth OD, locus YGR078C, strain PAC10, active compounds read low
Among all 5,500 compounds or so, about 2,000 (36%) were called active. Another 18% or so got no clear call; they are omitted. The list shows a part of the results.
Form rule: numeric answer, no unit written next to it.

Reference set, count: 4
| molecule | normalized growth |
| --- | --- |
| CC1(O)/C=C/C=C(\CO)C2CC(C)(C)C2(O)CC1 (stereo not given) | 1.02 |
| CC(C)CC1C(=O)N2CCC[C@H]2C2(O)O[C@](NC(=O)C3C=C4c5cccc6[nH]c(Br)c(c56)C[C@H]4N(C)C3)(C(C)C)C(=O)N12 (stereo not given in full) | 0.989 |
| CN1Cc2c(ccc3c2OCO3)C2C(O)Cc3cc4c(cc3C21)OCO4 (stereo not given) | 0.998 |
| NC[C@@H]1O[C@H](O[C@@H]2[C@@H](CO)OC(O[C@@H]3[C@@H](O)[C@H](N)C[C@H](N)[C@H]3OC3O[C@H](CN)[C@@H](O)[C@H](O)[C@H]3N)[C@@H]2O)[C@H](N)[C@@H](O)[C@@H]1O (stereo not given in full) | 1.02 |

// next item, normalized growth requested
Memo: COC(=O)[C@@H]1C(O)CC[C@H]2CN3CCc4c([nH]c5ccccc45)[C@@H]3C[C@@H]21 (stereo not given in full) , reported normalized growth: 1
